These entries and their values trace back to patent US20220235143A1.

Biological target: T1, MUC16 peptide-2 glycopeptide (human, also: glycopeptide, glycan and its site not given here)
T1 peptide: TLDRSSVLVDGYSPNRNE
Assay: SPR, BIAcore X100, peptide-2 glycopeptide over antibody captured by anti-IgG
Where no end group is shown, it is not given here.
endpoint label: kon
Answer with the figure and its unit, nothing else.

Query string: // lookup kon for 18C6 H1L2 humanized antibody (antibody, human IgG1, kappa, V domains shown) VH: QVTLKESGPGILQPTQTLTLTCTFSGFSLSTVGMGVGWSRQPSGKGLEWLAHIWWDDEDKYYNPALKSRLTITKDTSKNQVFLKITNVDTADTATYYCTRIGTAQATDALDYWGQGTLVTVSS VL: DIVMTQSALSLPVTPGEPVSISCRSSKSLLHSNGNTYLYWFLQKPGQSPQRLIYYMSNLASGVPDRFSGSGSGTDFTLKISRVEAEDVGVYYCMQSLEYPLTFGGGTKLEIKR
Result string: 287000 M⁻¹ s⁻¹
